Test system: NCI-H522 lung
protocol: NCI tumour cell line growth inhibition, 48 h
Listed below: GI50 values for each entry.

{"molecule": "COc1cccc(-c2nn(-c3ccccc3)cc2-c2ccnc(NCCCNC(=O)c3cccc(C(F)(F)F)c3)c2)c1", "GI50": "2580 nM"}
{"molecule": "CN(C)C(=O)OCc1nc2c(N3CCOCC3)nc(-c3ccccc3)nc2n1C", "GI50": "454 nM"}
{"molecule": "COc1ccc(C(C)c2cc(OC)c(OC)c(OC)c2)cc1 (centres undefined)", "GI50": "133 nM"}
{"molecule": "NCCCCCNc1noc(Cc2c[nH]c3cc(Br)ccc23)n1", "GI50": "748 nM"}
{"molecule": "C/C=C/C/C=C/[C@H](C)C[C@H](O)[C@@H]1C[C@@H]2O[C@H]2/C=C/[C@@H]2OC(C)(C)O[C@H]2/C=C/C[C@H](C)CC(=O)O1", "GI50": "3600 nM"}
{"molecule": "Cc1cc(C(=O)Nc2n[nH]c3ccccc23)n[nH]1", "GI50": "> 100000 nM"}
{"molecule": "CCC1C(C)C=NN1c1nc(N)nc(C(C#N)=Nc2ccc(N(C)C)cc2)n1 (centres undefined)", "GI50": "> 50000 nM"}
{"molecule": "NCCCOc1cc2ccccc2cc1C(=O)Nc1ccc(Cl)cc1OC(=O)c1cc2ccccc2cc1OCCCN", "GI50": "235 nM"}
{"molecule": "CNC(=O)c1cc(Oc2cccc3nc(NC(=O)Nc4cc(C(F)(F)F)cc(C(F)(F)F)c4)ccc23)ccn1", "GI50": "6650 nM"}
{"molecule": "O=C1/C=C/[C@@H](O)[C@@H]2C[C@@H](O)C[C@H]2/C=C/CCC[C@H](CCc2ccc3ncccc3c2)O1", "GI50": "212 nM"}
{"molecule": "O=S(=O)(NCCNc1nccc(-c2c(-c3ccc(F)c(O)c3)nc3sccn23)n1)c1ccc(Cl)cc1", "GI50": "2080 nM"}
{"molecule": "CC[C@@]1(OC(=O)CN(C)C)C(=O)OCc2c1cc1n(c2=O)Cc2cc3c(N)cccc3nc2-1", "GI50": "74.4 nM"}
{"molecule": "CC(C)(C)OC(=O)NCCCCn1c2c(c3ccccc3c1=O)C(=O)c1ccccc1-2", "GI50": "27000 nM"}
{"molecule": "CC1=C(/C=C/C(=O)CC(=O)/C=C/C2=C(C)CCCC2(C)C)C(C)(C)CCC1", "GI50": "26500 nM"}

###

Listed below: TGI values for each entry.
Tested on: SK-MEL-28 melanoma
protocol: NCI tumour cell line growth inhibition, 48 h

{"molecule": "CCCCCCCCCCCCCCCCCCNCc1ccc(Cl)cc1", "test.system": "SK-MEL-28 melanoma", "TGI": "28.8 µM"}
{"molecule": "Cc1cc(S(=O)(=O)Nc2nnc3c4ccccc4cnn23)c(S)cc1Cl", "test.system": "SK-MEL-28 melanoma", "TGI": "> 100 µM"}
{"molecule": "Cc1ccc(C(=O)NCCCOc2ccc(N3C(N)=NC(N)=NC3(C)C)cc2Cl)cc1S(=O)(=O)F", "test.system": "SK-MEL-28 melanoma", "TGI": "> 100 µM"}
{"molecule": "CC[C@@]1(OC(=O)CN(C)C)C(=O)OCc2c1cc1n(c2=O)Cc2cc3c(N)cccc3nc2-1", "test.system": "SK-MEL-28 melanoma", "TGI": "4.28 µM"}
{"molecule": "CCC(=O)NI1OC(=O)c2ccccc21", "test.system": "SK-MEL-28 melanoma", "TGI": "> 100 µM"}
{"molecule": "CNCCN[C@@H]1c2cc3c(cc2[C@@H](c2cc(OC)c(O)c(OC)c2)[C@H]2C(=O)OC[C@@H]21)OCO3", "test.system": "SK-MEL-28 melanoma", "TGI": "3.31 µM"}
{"molecule": "O=C(O)[C@@H]1OCCOCCO[C@@H](C(=O)O)[C@H](C(=O)O)OCCOCCO[C@H]1C(=O)O", "test.system": "SK-MEL-28 melanoma", "TGI": "> 100 µM"}
{"molecule": "COC1CC(OC2CCC3(C)C(=CCC4C3C(OC(C)=O)C(OC(=O)CC(C)C)C3(C)C(C(C)=O)CCC43O)C2)OC(C)C1OC1CC(OC)C(OC2CC(OC)C(OC3OC(C)C(O)C(OC)C3O)C(C)O2)C(C)O1 (stereo not drawn)", "test.system": "SK-MEL-28 melanoma", "TGI": "> 100 µM"}

###

System: MDA-MB-435
protocol: NCI tumour cell line growth inhibition, 48 h
Listed below: TGI values for each entry.
observation.type: TGI

{"molecule": "O=[N+]([O-])C1=Cc2cc(Cl)ccc2OC1c1cccc2ccccc12 (centres undefined)", "test.system": "MDA-MB-435", "result": "5.35 µM"}
{"molecule": "C=C(Cl)/C(=C\\Cl)CCC(Cl)C(C)C (centres undefined)", "test.system": "MDA-MB-435", "result": "> 100 µM"}
{"molecule": "CC[C@H](C)C1=C(OC(C)=O)[N@+]2([O-])Oc3ccc(-c4c(O)c(O)c(-c5ccc(OC(C)=O)cc5)c(OC(C)=O)c4OC(C)=O)cc3O[C@]2([C@@H](C)CC)C(=O)N1O", "test.system": "MDA-MB-435", "result": "> 50 µM"}
{"molecule": "COc1cccc(/C=C/c2nc3c(cnn3-c3ccccc3)c(=O)[nH]2)c1", "test.system": "MDA-MB-435", "result": "> 72.4 µM"}
{"molecule": "COc1ccc(/C=C2\\C[C@H]3[C@@H]4CC=C5C[C@@H](OC(C)=O)CC[C@]5(C)[C@H]4CC[C@]3(C)\\C2=N\\O)cc1OC", "test.system": "MDA-MB-435", "result": "> 100 µM"}
{"molecule": "S=C=Nc1ccc(CSc2nc3ccccc3[nH]2)cc1", "test.system": "MDA-MB-435", "result": "33.9 µM"}
{"molecule": "N#Cc1c(C#N)c(-c2ccccc2)n(Cc2ccccc2)c1N", "test.system": "MDA-MB-435", "result": "> 100 µM"}
{"molecule": "Cc1cc(C(=O)/C=C/c2ccc[nH]2)ccc1-n1ccc(C(F)(F)F)n1", "test.system": "MDA-MB-435", "result": "> 100 µM"}
{"molecule": "O=C1CC[C@H](N2Cc3c(OCc4ccc(CN5CCOCC5)cc4)cccc3C2=O)C(=O)N1", "test.system": "MDA-MB-435", "result": "> 100 µM"}
{"molecule": "c1ccc2cc3c(cc2c1)Nc1c2ccccc2nc2cccc-3c12", "test.system": "MDA-MB-435", "result": "3.43 µM"}
{"molecule": "CCOc1ccccc1NC(=O)C(=O)C(/C(=N/N)C(=O)OC)c1nc2ccc([N+](=O)[O-])cc2[nH]c1=O (centres undefined)", "test.system": "MDA-MB-435", "result": "> 100 µM"}
{"molecule": "O=[N+]([O-])c1ccc(-n2nc3ccc4c(no[n+]4[O-])c3[n+]2[O-])c([N+](=O)[O-])c1", "test.system": "MDA-MB-435", "result": "7.39 µM"}
{"molecule": "Cc1c[nH]c(C(=O)O)c1-c1cccn1-c1ccc(Cl)cc1[N+](=O)[O-]", "test.system": "MDA-MB-435", "result": "> 100 µM"}
{"molecule": "Cc1ccc(Nc2cc(Cl)c([N+](=O)[O-])cc2[N+](=O)[O-])cc1", "test.system": "MDA-MB-435", "result": "10.8 µM"}
{"molecule": "COc1cc2c(cc1OC)C1c3ccccc3CCN1CCC2 (centres undefined)", "test.system": "MDA-MB-435", "result": "> 100 µM"}
{"molecule": "CN(C)C1(N(C)C)Oc2c(c(=O)n(C)c(=O)n2C)C(c2ccc(C(F)(F)F)cc2)C1(F)F (centres undefined)", "test.system": "MDA-MB-435", "result": "> 100 µM"}
{"molecule": "CN(C)C(=O)OCc1nc2c(N3CCOCC3)nc(-c3ccccc3)nc2n1C", "test.system": "MDA-MB-435", "result": "2.27 µM"}
{"molecule": "COC(=O)c1cc(OS(=O)(=O)C(F)(F)F)c(=O)n2c1CCCC2", "test.system": "MDA-MB-435", "result": "> 100 µM"}
{"molecule": "NCCCOc1cc2ccccc2cc1C(=O)Nc1ccc(Cl)cc1OC(=O)c1cc2ccccc2cc1OCCCN", "test.system": "MDA-MB-435", "result": "3.96 µM"}

###

Tested on: SK-MEL-28 melanoma
protocol: NCI tumour cell line growth inhibition, 48 h
Listed below: TGI values for each entry.

{"compound": "C=C1C(=O)O[C@H]2C1C[C@@H](O)/C(C)=C/CC[C@@]1(C)O[C@H]21 (stereo partly drawn)", "TGI": "33.7 µM"}
{"compound": "CC1C2CCC3C(O)C2(CC(O)C2(O)C1CC(O)C2(C)C)CC3(C)O (stereo not drawn)", "TGI": "> 100 µM"}
{"compound": "CNCCCNC(=S)Cn1cc(C)c(=O)[nH]c1=O", "TGI": "> 75.4 µM"}
{"compound": "CCCN(CCC)C(=S)N/N=C(/C)c1ccccc1O", "TGI": "> 100 µM"}
{"compound": "CN(C)CCC(/C=C/c1ccccc1)=N\\Nc1ccc(Cl)c(Cl)c1", "TGI": "22.6 µM"}
{"compound": "CC(C)(C)OC(=O)N1CC(CCl)c2ccc(O)cc21 (stereo not drawn)", "TGI": "4.17 µM"}
{"compound": "C/C(=N\\NC(=O)C[N+](C)(C)C)c1sc(-c2cccnc2)nc1C", "TGI": "> 100 µM"}
{"compound": "O=c1c2cc(Br)cc(Br)c2nc(CCCl)n1-c1ccc(O)c([N+](=O)[O-])c1", "TGI": "35.4 µM"}
{"compound": "CN1CCN(c2ccc(OC(F)(F)F)c(Nc3ncc4c(n3)-c3c(c(C(N)=O)nn3CCO)CC4)c2)CC1", "TGI": "> 10 µM"}
{"compound": "Cc1c(Cl)c(=O)oc2cc(OC/C=C3\\CCC(=O)O3)ccc12", "TGI": "50 µM"}
{"compound": "CC(=O)N1c2ccccc2C2=NN(C)C(=N)SC21 (stereo not drawn)", "TGI": "> 100 µM"}
{"compound": "CNC(=O)N(CCC#N)CCN(C(=O)N(C)C)c1ccccc1", "TGI": "> 100 µM"}
{"compound": "COc1cccc(-c2nn(-c3ccccc3)cc2-c2ccnc(NCCCNC(=O)c3cccc(C(F)(F)F)c3)c2)c1", "TGI": "25.3 µM"}
{"compound": "COc1ccc2c(c1)c1c(n2CCN2CCOCC2)-c2cccc(OC)c2CC1", "TGI": "> 100 µM"}
{"compound": "N#CCCN(CCC#N)c1ccc(C(N=Nc2ccc(Cl)cc2)=Nc2ccccc2)cc1", "TGI": "30 µM"}
{"compound": "CCOC(=O)C(=O)Nc1cc(Cl)c(Cl)cc1Cl", "TGI": "> 100 µM"}
{"compound": "O=C1c2c(O)cc(O)cc2C(C2OC(CO)C(O)C(O)C2O)c2cc(CO)cc(O)c21 (stereo not drawn)", "TGI": "> 100 µM"}
{"compound": "Cc1cc(C)c2c(n1)S(=O)(=O)N(CCCN1CCN(c3cccc(Cl)c3)CC1)/C(=C(\\O)c1ccccc1)C2=O", "TGI": "> 100 µM"}
{"compound": "C[C@]12CC[C@@H]3c4ccc(O)cc4CC[C@H]3[C@@H]1CC[C@@H]2NS(=O)(=O)c1ccc(Br)cc1", "TGI": "5.09 µM"}
{"compound": "CCOC(=O)C1C=C2O[C@@H]3OC4(CCCCC4)O[C@@H]3C2C2C(=O)CCC(=O)[C@@]12C(=O)OC (stereo partly drawn)", "TGI": "> 100 µM"}
{"compound": "c1ccc2c(c1)nc1n2CSCC1", "TGI": "> 100 µM"}
{"compound": "CCCCN(CCCC)CCC(O)c1cc(-c2ccc(C(F)(F)F)cc2)nc(-c2ccc(C(F)(F)F)cc2)c1 (stereo not drawn)", "TGI": "> 100 µM"}
{"compound": "Cc1csc(NNC(N)=O)n1", "TGI": "> 100 µM"}
{"compound": "COC(=O)c1c(C)[nH]c2c1C(=O)C(=O)c1nc(C)c(C)nc1-2", "TGI": "25.2 µM"}
{"compound": "CC(C)(C)C1CCC2c3c([nH]c4ncccc34)C3C(=O)N(c4ccccc4)C(=O)C3C2C1 (stereo not drawn)", "TGI": "> 100 µM"}
{"compound": "CC(=O)c1c(SCCN2CCOCC2)n(-c2ccccc2)c(=S)n(-c2ccccc2)c1=O", "TGI": "57.8 µM"}
{"compound": "CN(CCO)Cc1ncccc1O", "TGI": "> 100 µM"}
{"compound": "O=C(Cc1nc2sc3c(c2c(=O)[nH]1)CCCC3)Nc1ccccc1", "TGI": "> 100 µM"}
{"compound": "O=C(CC(O)(C(F)(F)F)C(F)(F)Cl)CC(O)(C(F)(F)F)C(F)(F)Cl (stereo not drawn)", "TGI": "> 10 µM"}
{"compound": "C=C1C(=O)OC2C1C(OC(=O)/C(C)=C/C)CC(O)(CCl)C1C(O)C=C(C)C21O (stereo not drawn)", "TGI": "35 µM"}
{"compound": "CCOC(=O)c1nc2ccccc2nc1NCc1ccc(OC)c(OC)c1", "TGI": "> 100 µM"}
{"compound": "O=c1cc(-c2ccccc2)[nH]c2ccc(S)cc12", "TGI": "64.6 µM"}
{"compound": "CCOC(=O)c1nc2ccccc2n(CC)c1=O", "TGI": "> 100 µM"}
{"compound": "COc1cc2oc(=O)cc(C)c2c(OC)c1O", "TGI": "> 100 µM"}
{"compound": "CN(C)C1(N(C)C)Oc2c(c(=O)n(C)c(=O)n2C)C(c2ccc(C(F)(F)F)cc2)C1(F)F (stereo not drawn)", "TGI": "> 100 µM"}
{"compound": "CN(C)C(=O)OCc1nc2c(N3CCOCC3)nc(-c3ccccc3)nc2n1C", "TGI": "2.9 µM"}
{"compound": "c1ccc2c(c1)nn1c3ccc4nonc4c3[n-][n+]21", "TGI": "> 100 µM"}
{"compound": "NCCCCCNc1noc(Cc2c[nH]c3cc(Br)ccc23)n1", "TGI": "19.3 µM"}
{"compound": "CCOC(=O)C(C)Sc1nnc(COc2ccc(Cl)cc2)n1-c1ccccc1 (stereo not drawn)", "TGI": "49.2 µM"}
{"compound": "COc1ccc(C(C)c2cc(OC)c(OC)c(OC)c2)cc1 (stereo not drawn)", "TGI": "> 50 µM"}
{"compound": "COc1cc2c(oc(=O)c3c4occc4cc(OC)c23)c2cccc(OCc3ccccc3)c12", "TGI": "> 100 µM"}
{"compound": "O=C1NC(N2CCCC(CO)C2)=N/C1=C\\c1ccccc1 (stereo not drawn)", "TGI": "> 100 µM"}
{"compound": "Cc1coc2c1C(=O)C(=O)c1ccccc1-2", "TGI": "3.09 µM"}
